target: Kdn(a2-3)Gal(b1-3)GalNAc; assay: glycan array binding signal (z-score within array); higher = stronger binding; conditions: glycan notation: IUPAC condensed, linker removed
About 410 targets per protein were measured; listed, in parts, are those with the strongest signals and a random draw of the rest.
Quick rule for you: glycan array binding signal (z-score) at 0.4 or higher means Y, lower means N.

binder	answer label
CrataBL (Crataeva tapia), C0HJA4 (protein) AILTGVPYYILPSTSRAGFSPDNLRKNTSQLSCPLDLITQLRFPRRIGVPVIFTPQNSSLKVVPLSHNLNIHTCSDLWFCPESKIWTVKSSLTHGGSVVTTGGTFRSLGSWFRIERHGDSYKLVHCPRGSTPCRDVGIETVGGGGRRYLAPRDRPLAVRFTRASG	Y
AMA (Arum maculatun) (protein) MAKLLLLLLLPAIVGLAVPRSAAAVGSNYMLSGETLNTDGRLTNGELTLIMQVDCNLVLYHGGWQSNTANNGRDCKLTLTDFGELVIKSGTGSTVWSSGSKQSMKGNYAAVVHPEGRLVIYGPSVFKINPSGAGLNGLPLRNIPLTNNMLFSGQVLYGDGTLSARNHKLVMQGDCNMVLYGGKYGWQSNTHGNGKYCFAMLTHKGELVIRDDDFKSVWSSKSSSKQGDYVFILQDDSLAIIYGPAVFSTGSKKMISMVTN	N
OrysaEULS2 (Oryza sativa) (protein) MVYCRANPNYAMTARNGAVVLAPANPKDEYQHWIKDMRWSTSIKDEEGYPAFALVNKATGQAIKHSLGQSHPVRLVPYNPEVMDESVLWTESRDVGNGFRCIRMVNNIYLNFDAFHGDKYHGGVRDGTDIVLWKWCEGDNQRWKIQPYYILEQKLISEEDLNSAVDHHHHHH	N
HFR-3 (Triticum aestivum) (protein) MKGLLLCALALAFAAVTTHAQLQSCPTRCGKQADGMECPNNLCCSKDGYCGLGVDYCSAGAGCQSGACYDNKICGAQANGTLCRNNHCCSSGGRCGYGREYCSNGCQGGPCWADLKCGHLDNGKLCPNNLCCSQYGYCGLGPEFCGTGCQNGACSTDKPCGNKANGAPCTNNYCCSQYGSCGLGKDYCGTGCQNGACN	Y
Langerin K313I (Homo sapiens), Q9UJ71 (protein) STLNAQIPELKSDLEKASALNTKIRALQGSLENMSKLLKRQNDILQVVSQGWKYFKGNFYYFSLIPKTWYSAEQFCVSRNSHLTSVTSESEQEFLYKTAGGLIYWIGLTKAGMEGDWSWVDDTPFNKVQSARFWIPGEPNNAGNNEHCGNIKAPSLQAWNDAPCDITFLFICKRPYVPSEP	N

Next up:
[in] Check if glycan array binding signal (z-score) >= 0.4 (inclusive). Item: LTL (Lotus tetragonolobus), P19664 (protein) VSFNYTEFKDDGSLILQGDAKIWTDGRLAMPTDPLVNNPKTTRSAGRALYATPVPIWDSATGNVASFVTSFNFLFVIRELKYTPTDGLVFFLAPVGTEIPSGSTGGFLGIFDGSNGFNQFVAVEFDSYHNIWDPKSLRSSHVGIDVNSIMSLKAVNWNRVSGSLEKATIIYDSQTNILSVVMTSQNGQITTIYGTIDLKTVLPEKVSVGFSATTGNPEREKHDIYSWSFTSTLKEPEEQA
[out] N
